target: Peroxisome proliferator-activated receptor alpha (Homo sapiens) (UniProt Q07869); test: qHTS assay for small molecule agonists of the peroxisome proliferator-activated receptor alpha (PPARalpha) signaling pathway (AID 651778); conditions: PathHunter PPARalpha complementation, chemiluminescence, 6 h; active compounds read high; also: % of control where 0% means no effect
Sequence (Q07869 whole entry, looked up): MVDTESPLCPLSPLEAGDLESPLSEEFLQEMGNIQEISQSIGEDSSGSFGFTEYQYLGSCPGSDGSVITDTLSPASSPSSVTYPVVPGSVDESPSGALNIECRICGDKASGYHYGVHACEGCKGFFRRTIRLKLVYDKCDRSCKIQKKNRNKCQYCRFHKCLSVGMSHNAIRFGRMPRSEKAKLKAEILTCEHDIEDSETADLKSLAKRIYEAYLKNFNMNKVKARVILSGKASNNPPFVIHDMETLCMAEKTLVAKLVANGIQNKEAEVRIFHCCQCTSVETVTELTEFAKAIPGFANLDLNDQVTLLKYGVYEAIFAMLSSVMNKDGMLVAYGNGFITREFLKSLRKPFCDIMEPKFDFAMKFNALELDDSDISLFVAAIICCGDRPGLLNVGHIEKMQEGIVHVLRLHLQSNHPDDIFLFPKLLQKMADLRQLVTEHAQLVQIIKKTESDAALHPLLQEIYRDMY
The source made the active and inactive calls. Calls follow the shape of the dose curve; as a rule, active = well fitted activation curve with a large enough effect; inconclusive = small, poorly fitted or top-dose-only effect; inactive = flat fitted curve, though single readings scatter.
Quick reference: max response of the listed items.

Example entries begin here.
> print(dat)
                                   molecule              result
1     C=CC(=O)OCC(CC)(COC(=O)C=C)COC(=O)C=C   -1.24% (inactive)
2  CCOc1nc(NC)nc(NC(=O)NS(=O)(=O)c2ccccc2C(=O)OC)n1   -5.58% (inactive)
3  CC1(C)C(C(=O)OC(C#N)c2cccc(Oc3ccccc3)c2)C1(C)C (stereo unspecified)  -0.276% (inactive)
4        CN/C(=N\[N+](=O)[O-])NCc1cnc(Cl)s1  -0.992% (inactive)

// next item, max response requested
## Input Recall the recorded max response for `CC(C)(C)N(NC(=O)c1ccc(Cl)cc1)C(=O)c1ccccc1` with Peroxisome proliferator-activated receptor alpha (Homo sapiens) (UniProt Q07869) and state it.
## Output -3.24% (inactive)

----------
test system: Dd2; assay: qHTS profiling for inhibitors of Plasmodium falciparum proliferation (AID 504749); also: nearly all actives have a fitted effect of over 60% in size; conditions: P. falciparum in erythrocytes, SYBR Green DNA, 72 h; series mostly up to 28.7 µM
Inconclusive results are not listed. Active and inactive are the calls of the source. The call rests on the fitted dose curve; in most records, active means well fitted inhibition curve with a large enough effect; inconclusive means small, poorly fitted or top-dose-only effect; inactive means flat fitted curve, though single readings scatter.
Lab note: assign the record to one of 1 (active), -1 (inactive)

## Input GET /call?item= CC(=O)Oc1ccc2c3c1OC1[C@@H](OC(C)=O)C=C[C@H]4[C@H](C2)N(C)CC[C@]314 (stereo partly drawn) returns the recorded outcome of this test.
## Output -1

## Input Please give the result for `CN(C)[C@H]1C(=O)C(C(N)=O)=C(O)[C@]2(O)C(=O)C3=C(O)c4c(O)cccc4[C@@](C)(O)[C@H]3C[C@@H]12` too.
## Output 1

## Input Another molecule to look at: NC(Cc1ccc(Oc2cc(I)c(O)c(I)c2)c(I)c1)C(=O)O (stereo not drawn)
## Output -1

## Input Now the molecule CCC(=O)OC1(c2ccccc2)CCN(C)CC1C (stereo not drawn)
## Output 1

## Input Also, CCCCCC(O)C1C(=O)OC(C)C(O)\C=C/C=C\C=C/C=C\C=C(\C)C(O)C(O)C(O)CC(O)CC(O)CC(O)CC(O)CC1O (stereo not drawn) please.
## Output -1

## Input Likewise for `[S]=[Sb][S][Sb]=[S]` ?
## Output -1

## Input Another molecule to check: C=CC[N+]1(C)CCC23c4c5ccc(O)c4O[C@H]2C(=O)CC[C@@]3(O)C1C5 (stereo partly drawn)
## Output -1

## Input Try CC(C)=CC1C(C(=O)OCc2coc(Cc3ccccc3)c2)C1(C)C (stereo not drawn) next.
## Output -1

## Input How about `CCOC(=O)c1cncn1[C@@H](C)c1ccccc1` ?
## Output -1

## Input Follow-up entry: CN1C2CCC1C(C(=O)O)C(OC(=O)c1ccccc1)C2 (stereo not drawn)
## Output -1

## Input Do the same for C[C@@H]1CC[C@H]2[C@@H](C)C(=O)O[C@@H]3OC4(C)CC[C@@H]1C32OO4 (stereo partly drawn) please
## Output 1

## Input Cool, now C[C@]12C=CC(=O)C=C1CC[C@@H]1C2CC[C@]2(C)OC(=O)CCC12 (stereo partly drawn)
## Output -1

## Input And then `C[C@H](N)Cc1ccccc1` , what is it?
## Output -1

## Input `Nc1nc(O)c(-c2ccccc2)o1` ?
## Output -1

## Input How about C[C@]12CCC3C(CCC4=C(Cl)C(=O)CC[C@@]43C)C1CCC2O (stereo partly drawn) ?
## Output -1

## Input Next molecule up: `C=C1Nc2ccccc2C(=O)N1c1ccccc1C`
## Output -1

## Input How about OCC(O)[C@H]1O[C@@H]2O[C@H](C(Cl)(Cl)Cl)O[C@@H]2[C@H]1O (stereo partly drawn) ?
## Output -1

## Input Same thing, different molecule: O=C1CC2OCC=C3CN4CC[C@]56c7ccccc7N1C5C2[C@H]3C[C@H]46 (stereo partly drawn)
## Output 1

Where do the numbers come from? From PubChem BioAssay (NCATS).
